The values you see were collected from the supplement of paper PMC11451515.

Entries and their measured cell viability follow.
- System: NOMO1
- Measurement protocol: cell viability relative to DMSO control; higher = less cytotoxic
- Experimental conditions: RPMI 5 mM glucose + 10% FBS; 48 h; 0.00234 µM
Measured parameter: cell viability (%)

| Compound | Recorded measurement |
| --- | --- |
| CNC(=O)c1nn(C)c2c1C(C)(C)Cc1cnc(Nc3ccc(N4CCN(C)CC4)cc3)nc1-2 | 114 |
| O=C(O)c1cccc(-c2noc(-c3ccccc3F)n2)c1 | 90.6 |
| CC(=O)N(O)CCCCCNC(=O)CCC(=O)N(O)CCCCCNC(=O)CCC(=O)N(O)CCCCCN.C[S+](=O)([O-])O | 97.4 |
| CC(C)[C@]12O[C@H]1[C@@H]3O[C@@]34[C@@]5(C)CC\C6=C(COC6=O)/[C@@H]5C[C@@H]7O[C@]47[C@@H]2O | 6.29 |
| C#CCC(Cc1cnc2nc(N)nc(N)c2n1)c1ccc(C(=O)N[C@@H](CCC(=O)O)C(=O)O)cc1 (stereo not given in full) | 122 |
| OC1=C(Cl)C=C(N\C2=C(\C(=O)NC2=O)C3=C(C=CC=C3)[N+]([O-])=O)C=C1 | 106 |
| CN(C[C@@H]1COCCO1)[S+]([O-])(=O)NC2=CC3=C(C=C2)\C=C/C4=C(C=C(C=N4)C5=C[N](C)N=C5)C3=O | 101 |
| COc1cc(N2CCC(N3CCN(C)CC3)CC2)ccc1Nc1ncc(Cl)c(Nc2ccccc2[S+](=O)([O-])C(C)C)n1 | 73.3 |
| CCC(=O)N1CCN(CC1)C2=C(C=C(C=C2)N3C(=O)\C=C/C4=C3C5=CC(=CC=C5N=C4)C6=CN=C7C=CC=CC7=C6)C(F)(F)F | 96.7 |
| CCOc1cc(C(=O)Nc2ccc(Cl)c(-c3nc4ccccc4[nH]3)c2)cc(OCC)c1OCC | 90.6 |
| c1coc(CNc2ncnc3nc[nH]c23)c1 | 131 |
| COc1cc2c(cc1O)CCC1C2CC[C@@]2(C)C1CC[C@@H]2O (stereo not given in full) | 111 |
| COCC(=O)NC/C=C/c1ccc2ncnc(Nc3ccc(Oc4ccc(C)nc4)c(C)c3)c2c1 | 96.4 |
| CC(C)C[C@H](CC(=O)O)C(=O)N[C@@H](Cc1c[nH]c2ccccc12)C(=O)N[C@@H](C)c1ccccc1 | 93.9 |
| CN1CCC(CNc2ccc3ncc(-c4cccc(OC(F)(F)F)c4)n3n2)CC1 | 83.3 |
| COc1cc(N2CCN(C)CC2)ccc1Nc1nc(N)c(C(=O)c2c(Cl)cccc2Cl)s1 | 117 |
| C[C@@H]1CC[C@@]2(CC[C@]3(C)\C(=C/C[C@@H]4[C@@]5(C)C[C@@H](O)[C@H](O)[C@@](C)(CO)[C@@H]5CC[C@@]34C)[C@@H]2[C@H]1C)C(O)=O | 99.9 |
| CCC[C@H](Nc1nc(-c2ccc(NC(=O)NCC)c(OC)c2)ncc1C)c1cccnc1 | 112 |
| CN(C)c1ccc(-c2nc3c(N4CCN(CC(=O)Nc5nccs5)CC4)c(Cl)cnc3[nH]2)cc1 | 99.3 |
| C[C@@H](Cc1cc2c(c(C(N)=O)c1)N(CCCO)CC2)NCCOc1ccccc1OCC(F)(F)F | 105 |
| Clc1ccc(C(c2ccccc2Cl)C(Cl)Cl)cc1 (stereo not given) | 115 |
| Cc1nnc(C(=O)NC(C)(C)c2nc(C(=O)NCc3ccc(F)cc3)c(O)c(=O)n2C)o1 | 99.4 |
| CC(C)(Sc1cc(C(C)(C)C)c(O)c(C(C)(C)C)c1)Sc1cc(C(C)(C)C)c(O)c(C(C)(C)C)c1 | 92.5 |
| CN(CC(=O)N(Cc1ccc(C2CCCCC2)cc1)c1ccc(C(=O)O)c(O)c1)[S+](=O)([O-])c1c(F)c(F)c(F)c(F)c1F | 82.5 |
| CC[C@H]1OC(=O)[C@H](C)[C@@H](O[C@H]2C[C@@](C)(OC)[C@@H](O)[C@H](C)O2)[C@H](C)[C@@H](O[C@@H]2O[C@H](C)C[C@H](N(C)C)[C@H]2O)[C@](C)(O)C[C@@H](C)/C(=N\OCOCCOC)[C@H](C)[C@@H](O)[C@]1(C)O | 92 |
| CN(C)C(=O)[C@H](O)[C@H](Cc1ccccc1)NC(=O)c1cc2cc(Cl)ccc2[nH]1 | 105 |
| N#CC1(c2cccc(C(=O)Nc3cc(Oc4ccc5nc(NC(=O)C6CC6)sc5n4)ccc3F)c2Cl)CC1 | 113 |
| CCn1c(C(=O)N(C2CC2)C2CC2)cc2c3c(ncn3C)c(Nc3cc(C)n(C)n3)nc21 | 100 |
| Nc1ncnc2nc(-c3ccc(N4CCOCC4)nc3)cc(-c3cccc(Br)c3)c12 | 107 |
| COc1cccc(N(C)C(=S)Oc2ccc3c(c2)CCCC3)n1 | 88.1 |

###

Entries and their measured cell viability follow.
- Tested on: P12-Ichikawa
- Measurement protocol: cell viability relative to DMSO control; higher = less cytotoxic
- Experimental conditions: RPMI 5 mM glucose + 10% FBS; 48 h; 0.19 µM
Measured parameter: cell viability (%)

| Compound | Target or test system | Measured parameter | Recorded measurement |
| --- | --- | --- | --- |
| C[C@H](NC(=O)[C@@H](O)c1cc(F)cc(F)c1)C(=O)N[C@@H]1C(=O)N(C)c2ccccc2-c2ccccc21 | P12-Ichikawa | cell viability | 111 |
| O=C(O)c1cccc(-c2noc(-c3ccccc3F)n2)c1 | P12-Ichikawa | cell viability | 106 |
| C#CCC(Cc1cnc2nc(N)nc(N)c2n1)c1ccc(C(=O)N[C@@H](CCC(=O)O)C(=O)O)cc1 (some centres not stated) | P12-Ichikawa | cell viability | 47.4 |
| CCCCCN(C)CCC(O)(P(=O)([O-])O)P(=O)(O)O | P12-Ichikawa | cell viability | 86.6 |
| NC(=O)N1CCC(CC(=O)N2CCC([C@H]3c4ncc(Br)cc4CCc4cc(Cl)cc(Br)c43)CC2)CC1 | P12-Ichikawa | cell viability | 106 |
| CCC(=O)N1CCN(CC1)C2=C(C=C(C=C2)N3C(=O)\C=C/C4=C3C5=CC(=CC=C5N=C4)C6=CN=C7C=CC=CC7=C6)C(F)(F)F | P12-Ichikawa | cell viability | 65.3 |
| CC(C)(C)NCC(O)c1ccc(O)c(CO)c1 (configuration not stated) | P12-Ichikawa | cell viability | 113 |
| O=C(Nc1ccccc1)Nc1ccc(-c2ccc(C(=O)[C@@H]3CCC[C@H]3C(=O)O)cc2)cc1 | P12-Ichikawa | cell viability | 114 |
| CCCCN1CCC(CNC(=O)c2c3n(c4ccccc24)CCCO3)CC1 | P12-Ichikawa | cell viability | 101 |
| CN1CCN(CC1)C2=CC3=C([NH]C(=N3)C/4=C(\N)C5=C(F)C=CC=C5NC4=O)C=C2 | P12-Ichikawa | cell viability | 104 |
| c1ccc2c(CN3CCNCC3)cccc2c1 | P12-Ichikawa | cell viability | 107 |
| Clc1ccc(CCC(Cn2ccnc2)Sc2c(Cl)cccc2Cl)cc1 (configuration not stated) | P12-Ichikawa | cell viability | 94.8 |
| COc1cccc(N(C)C(=S)Oc2ccc3c(c2)CCCC3)n1 | P12-Ichikawa | cell viability | 92.2 |
| C/C=C(\C)C(=O)N[C@@H](c1ccccc1)[C@@H](O)C(=O)O[C@H]1C[C@@]2(O)[C@@H](OC(=O)c3ccccc3)[C@@H]3[C@]4(OC(C)=O)CO[C@@H]4C[C@H](O)[C@@]3(C)C(=O)[C@H](OC(C)=O)C(=C1C)C2(C)C | P12-Ichikawa | cell viability | 17.2 |
| COc1cc(N2CCN(C)CC2)ccc1Nc1nc(N)c(C(=O)c2c(Cl)cccc2Cl)s1 | P12-Ichikawa | cell viability | 111 |
| N#Cc1cc(NC(=O)Nc2nnc(-c3ccncc3)s2)ccc1-c1cn[nH]c1 | P12-Ichikawa | cell viability | 116 |
| OC1=C(Cl)C=C(N\C2=C(\C(=O)NC2=O)C3=C(C=CC=C3)[N+]([O-])=O)C=C1 | P12-Ichikawa | cell viability | 98.9 |

###

- Tested on: NOMO1
- Measurement protocol: cell viability relative to DMSO control; higher = less cytotoxic
- Experimental conditions: RPMI 5 mM glucose + 10% dialyzed FBS; 48 h; 0.00702 µM
Measured parameter: cell viability (%)

| Molecule | Unit descriptor | Recorded measurement |
| --- | --- | --- |
| C[C@]12CC[C@H]3[C@@H](CC[C@@]45O[C@@H]4C(O)=C(C#N)C[C@]35C)[C@@H]1CC[C@@H]2O | % | 127 |
| CN1CCC(CNc2ccc3ncc(-c4cccc(OC(F)(F)F)c4)n3n2)CC1 | % | 97.1 |
| COc1cc(N2CCC(N3CCN(C)CC3)CC2)ccc1Nc1ncc(Cl)c(Nc2ccccc2[S+](=O)([O-])C(C)C)n1 | % | 103 |
| Clc1ccc(CCC(Cn2ccnc2)Sc2c(Cl)cccc2Cl)cc1 (centres undefined) | % | 94.1 |
